assay: HepG2 cytotoxicity screening (CellTiter-Glo); conditions: human, uninfected HepG2-A16-CD81 (EGFP) hepatocytes
pIC50: −log10 of the molar value.
Measure: pIC50

Query block: Entry under review: CC(=O)Nc1nc(C(=O)N2CCCC(n3cncn3)C2)cs1 (stereo not drawn) [UCSD-0843277] . Reported pIC50?
Result block: < 4.30

Query block: Now try O=C(O)CSc1nnc(-c2cn[nH]c2)n1-c1ccccc1C(F)(F)F [UCSD-0830442] .
Result block: < 4.30

Query block: Now try CCC1=NC(SCC(=O)c2ccccc2)c2cc(CC)sc2N1 (stereo not drawn) [UCSD-0796974] .
Result block: < 4.60

Query block: Now try COc1cccc(CN2CCc3nc(C(=O)NCC(C)C)sc3CC2)c1 [UCSD-0790206] .
Result block: < 4.60

Query block: Now try COCCCNC1N=C(n2nc(C)cc2C)Nc2sc3c(c21)CCCC3 (stereo not drawn) [UCSD-0796603] .
Result block: < 4.60

Query block: Now try CCc1ccccc1OC1CN(C(=O)c2ccnc(OC)c2)C1 [UCSD-0824378] .
Result block: < 4.30

Query block: Now try NCC1CCN(C2CCN(c3ccc(-c4ccco4)cc3)CC2)C1 (stereo not drawn) [UCSD-0833151] .
Result block: 4.85

Query block: Now try Cc1cc(-c2cnc(NCc3cccnc3)nc2C(C)(C)C)on1 [UCSD-0802583] .
Result block: < 4.60

Query block: Now try CCOc1ccccc1CNC(=O)NCC(c1cnn(C)c1)N(C)C (stereo not drawn) [UCSD-0816742] .
Result block: < 4.30
